B1: Ankyrin-3, residues 4094 to 4171; numbered along this chain, Q12955 (parent)
chain: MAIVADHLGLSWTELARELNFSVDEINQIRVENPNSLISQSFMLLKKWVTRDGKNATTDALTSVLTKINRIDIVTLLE

# Variants of: B1
# assayName: abundance fitness (aPCA) (normalised: wild type 0, dead -1); higher = more abundant; growth selection in yeast, the domain comes from the species named
# setupConditions: Homo sapiens
measureName: abundance fitness

> print(dat)
    variantdescriptor  numericvalue
 1               L44H         -0.75
 2               E25W        -0.887
 3                H7F        -0.521
 4               N55A         0.007
 5               I29T        -0.752
 6               R70V        -0.876
 7               N20W        -0.902
 8               R17F        -0.108
 9               N35P        -0.665
10               V31K         0.044
11               T13E         0.005
12               L65R        -0.902
13               T66V         0.018
14               K67C        -0.436
15               L37C         -0.15
16               T66L        -0.102
17                A2M        -0.175
18               L10P         -0.04
19               E78F         -0.13
20               D72A        -0.739
21               W12L        -0.838
22               L45R        -0.865
23               L44Y        -0.693
24               L76W        -0.489
25               T66R         -0.07
26               E18Y        -0.605
27               L37A        -0.095
28               I38T        -0.122
29               T57K        -0.739
30               T50Y             0
31               V23H          0.02
32               R17A        -0.033
33               R30L        -0.033
34               N20A        -0.162
35               T13A        -0.153
36               K54D        -0.233
37               I26L         -0.96
38               E18G        -0.455
39               W48S        -0.928
40               W12I        -0.738
41               V23K        -0.142
42               F42W         0.022
43               S41C        -0.538
44               R30Q        -0.188
45               N35A        -0.215
46                M1H        -0.587
